Origin of values: patent US6525001B1

Tested on: broadleaf signalgrass (Brachiaria decumbens)
protocol notes: Test B pre-/postemergence
Type: in vivo
cond: Rate 125 g/ha, Postemergence
measurement label: B. signalgrass plant response rating
Please give the numeric answer without any surrounding text.

Example molecules with recorded B. signalgrass plant response rating:
INSERT INTO measurements (item_smiles, obs_value) VALUES
  ('Cc1cnc(-c2ccc(C(F)(F)F)cc2)nc1C(=O)c1ccc(C(F)(F)F)cc1', 1),
  ('Cc1cnc(-n2ccc(C(F)(F)C(F)(F)F)n2)nc1C(=O)c1cccc(C(F)(F)F)c1', 3),
  ('Cc1cnc(-n2cnc(C(F)(F)F)n2)nc1C(=O)c1cccc(OC(F)(F)F)c1', 5),
  ('Cc1cnc(-n2cnc(C(F)(F)F)n2)nc1C(=O)c1cccc(C(F)(F)F)c1', 7),
  ('Cc1cnc(-n2ccc(C(F)(F)F)n2)nc1Cn1ccc(C(F)(F)F)n1', 9);

Kindly review the next molecule as well.
# input Give the measured B. signalgrass plant response rating for O=C(c1cccc(C(F)(F)F)c1)c1ccnc(-c2ccc(C(F)(F)F)cc2)n1
# output 0
